Molecular target: T1, recombinant, soluble human ASGR-1 (human, UniProt P07306 62-291)
T1 construct: biotinylated in the binning assay; also called soluble huASGR-1; Soluble ASGR-1 (Amgen)
T1 sequence: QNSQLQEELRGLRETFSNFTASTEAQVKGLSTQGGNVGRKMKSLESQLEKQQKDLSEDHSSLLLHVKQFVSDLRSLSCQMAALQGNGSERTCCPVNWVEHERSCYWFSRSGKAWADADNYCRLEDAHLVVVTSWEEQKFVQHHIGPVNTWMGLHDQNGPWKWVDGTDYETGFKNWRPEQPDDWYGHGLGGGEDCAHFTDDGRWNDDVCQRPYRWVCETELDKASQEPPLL
Test: Octet BLI dissociation, pH 5.6 plus calcium
READOUT_LABEL: % Change Compared to pH 7.4 + Calcium (%)
Enter your answer as a number in %; do not include the unit.

BINDER	UNIT_ABBREVIATION	RECORDED_RESULT
191G1 (antibody, V domains shown, hybridoma mAb) VH: QVQLVESGGGVVQPGRSLRLSCAASGFTFSSYGMHWVRQAPGKGLEWVAVIWYDGSNEHYADSVKGRFTISRDNSKNTLYLQMNSLRAEDTAVYYCARDRGVGYYGLDVWGQGTTVTVSS VL: DIQMTQSPSSLSASVGDRVTITCRASQGISNYLAWFQQKPGKAPKSLIYAASSLQSGVPSKFSGSGSGTDFTLTISSLQPEDFATYYCQHYLTYPLTFGGGTKVEIK	%	-15
198B9 (antibody, V domains shown, hybridoma mAb) VH: QVQLVESGGGVVQPGRSLRLSCAASGFTFSNYGMHWVRQAPGKGLEWVAIIWFDGSNKYYVDSVKGRFTISRDNSKNTLFLQMSSLRAEDTAVYYCAREWLQFRYYYGMDVWGQGTTVTVSS VL: DIQMTQSPSSLSASVGDRVTITCRASQGIRKDLGWYQQKPGKAPKRLIYAASSLQSGVPSRFSGSGSGTEFTLTISSLQPEDFATYVCLQHYRYPFTFGPGTKVDFK	%	2
65F10 (antibody, V domains shown, hybridoma mAb) VH: QVQLVQSGAEVKKPGASVKVSCKASGYTFTGYHMHWVRQAPGQGLEWMGWINPNNGGTSYAQKFQDRVNMTRDTSISTAYMELSRLRSDDTAVYYCARDSRSSWDYWGQGTLVTVSS VL: DIQMTQSPSSVSASVGDRVTITCRGGQGISTWLAWYQQKPGKAPKLLIYAASILQSGVPSRFRGRGSGTDFTLTISSLQPEDFATYYCQQGNIFPFTFGRGTKVDIK	%	18

Query: # query: % Change Compared to pH 7.4 + Calcium of entry 48B12 (antibody, V domains shown, hybridoma mAb) VH: EVQLLESGGGLVQPGGSLRLSCAASGFTFSSYAMNWVRQAPGKGLEWVSAISGRGGNTFYADSVKGRFTISRDNSKNTLYLQMNSLRAEDTAVYYCAKRETYNWNYEGFDYWGQGTLVTVSS VL: SYELTQPPSVSVSPGQTARITCSGDALPKKYAYWYQQKSGQAPVLVIYEDSKRPSGIPERFSGSSSGTMATLTISGAQVEDEADYYCNSTDSSGNHVVFGGGTKLTVL
Result: -6

Query: Input 53F2 (antibody, V domains shown, hybridoma mAb) VH: QVQLVQSGAEVKKPGASVKVSCKASGYTFTGYYLHWVRQAPGQGLEWMGWINPNRNGTNYAQNFQGRVTMTRDTSISTAYMELSRLKSDDTAVYYCARDGTSSFDYWGQGTLVTVSS VL: DIQMTQSPSSVSASVGDRVTITCRASQGISKWLAWYQQKPGKAPNLLLYAASSLQSGVPSKFSGSGSGTDFTLTISSLQPEDFATYYCQQANSFPFTFGPGTKVDVK
Result: 1
